# assayed-system: CD47 on HL60 cells (UniProt Q08722 19-323, limits assumed)
# assay-info: cell-based or functional assay
Parameter rate of phagocytosis, antibody 1 µg/mL: see the listing below.
State just the number; it will be interpreted in %.

hz3F10-2.2 (antibody, human IgG4 S228P, kappa, V domains shown, humanized 3F10, full-length heavy and light chains) VH: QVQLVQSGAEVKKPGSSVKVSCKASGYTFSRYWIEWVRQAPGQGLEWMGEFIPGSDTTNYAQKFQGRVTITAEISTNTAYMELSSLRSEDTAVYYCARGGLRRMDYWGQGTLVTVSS VL: DIQMTQSPSSLSASVGDRVTITCRASSSVSSTYLHWYQQKPGKAPKLLIYTTSTLASGVPSRFSGSGSGTDFTLTISSLQPEDFATYYCQQFSESTWTFGQGTKLEIKR = 44.2
hz3F10-1.1 (antibody, human IgG4 S228P, kappa, V domains shown, humanized 3F10, full-length heavy and light chains) VH: QVQLVQSGAEVKKPGSSVKVSCKASGYTFSRYWIEWVRQAPGQGLEWMGEFIPGSDTTNYAQKFQGRVTITADISTSTAYMELSSLRSEDTAVYYCARGGLRRMDYWGQGTLVTVSS VL: DIQMTQSPSSLSASVGDRVTITCRASSSVSSTYLHWYQQKPGKAPKLLIYTTSTLASGVPSRFSGSGSGTDFTLTISSLQPEDFATYYCQQFSDSTWTFGQGTKLEIKR = 41.2

# input for lookup
**Query** Looking for the measured rate of phagocytosis, antibody 1 µg/mL of hz14A9-2.3 (antibody, human IgG4 S228P, kappa, V domains shown, humanized 14A9, full-length heavy and light chains) VH: QVQLVQSGAEVKKPGASVKVSCKVSGFNIEDDYIEWVRQAPGQGLEWMGRIDPANDKTKYAQKFQGRVTMTGDTSTNTVYMELSSLRSEDTAVYYCARPGLRRYYSMDYWGQGTLVTVSS VL: DIQMTQSPSSLSASVGDRVTITCKASENVVSYVSWYQQKPGKAPKLLIYGASNRYTGVPSRFIGSGSSTDFTLTISSLQPEDFATYYCGQSYSYPLTFGQGTKLEIKR , can you help?
**Result** 71.5
